System: BMKC
Experimental details: Anti-cancer assay, MTT, LD50
Type: cell-based
Condition: BMKC cloned melanoma line, 24 hours with peptide
No end group written: not given here.
Could you please report measured LD50 BMKC for the items listed next?
Give the number; µg/mL is assumed, so skip it.

Consider the substance FAKKLAKLALKLAKL-NH2 [P44] and give its measured LD50 BMKC.
47

Could you do the same for FAKLLAKLAKKSL-NH2 [P127] , please?
535

Could you do the same for FAKLLAKLAK-NH2 [P123] , please?
635

Could you do the same for FALAAKALKKLAKKLKKLAKKAL-NH2 [P23] , please?
27
